biological target: human cannabinoid CB2 receptor (Homo sapiens, UniProt P34972); construct: expressed in transfected cells; host or cells: CHO cells, membrane preparations; assay: In vitro affinity for cannabinoid-CB2 receptors ([3H]CP-55,940 radioligand binding); details: membranes of CHO cells stably transfected with human CB2, read-out: receptor binding Human CB2 affinity pKi (converted)
Sequence (P34972 whole entry): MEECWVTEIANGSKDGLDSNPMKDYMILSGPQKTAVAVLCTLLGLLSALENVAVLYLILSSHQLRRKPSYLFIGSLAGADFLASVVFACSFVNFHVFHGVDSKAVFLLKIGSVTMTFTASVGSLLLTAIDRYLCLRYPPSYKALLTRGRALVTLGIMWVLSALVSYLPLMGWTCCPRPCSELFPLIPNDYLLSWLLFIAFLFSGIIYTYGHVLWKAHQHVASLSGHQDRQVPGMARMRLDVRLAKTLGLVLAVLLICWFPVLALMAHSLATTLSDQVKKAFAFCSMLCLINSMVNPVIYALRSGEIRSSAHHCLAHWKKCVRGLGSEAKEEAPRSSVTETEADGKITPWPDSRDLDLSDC
outcome_measure: Ki (µM)
Quick note: give the figure in µM, leave out the unit.

Lookup: If you can, please state the reported Ki value of CCCCCN1N=C(C(=O)NC2C3CC4CC(C3)CC2C4)CC1c1ccccc1 (centres unmarked) .
Found: 0.00501

Lookup: If you can, please state the reported Ki value of CCCCCN1N=C(C(=O)NC(C)(C)c2ccc(F)cc2)CC1c1ccccc1 (centres unmarked) .
Found: 0.126

Lookup: If you can, please state the reported Ki value of CCCCCN1N=C(C(=O)Nc2cccc3ccccc23)CC1c1ccccc1 (centres unmarked) .
Found: 0.0794

Lookup: If you can, please state the reported Ki value of CCCCCN1N=C(C(=O)NC23CC4CC(CC(C4)C2)C3)CC1c1ccccc1 (centres unmarked) .
Found: 0.00794

Lookup: If you can, please state the reported Ki value of CCCCCN1N=C(C(=O)NC(C)(C)c2ccccc2)CC1c1ccccc1 (centres unmarked) .
Found: 0.1

###

Molecular target: human CB1 receptor (Homo sapiens, UniProt P21554)
Construct: expressed in transfected cells; host or cells: CHO cells
Experiment: In vitro cannabinoid-CB1 receptor (ant)agonism ([3H]-arachidonic acid release in CHO cells)
Assay type: cell-based
Conditions: human CB1 receptor cloned in CHO cells, read-out: Functional CB1 assays Human CB1 agonism pEC50 (converted)
Method: In Vitro Cannabinoid-CB1 Receptor (Ant)Agonism In vitro CB1 receptor antagonism/agonism can be assessed with the human CB1 receptor cloned in CHO cells. CHO cells are grown in a Dulbecco's Modified Eagle's medium (DMEM) culture medium, supplemented with 10% heat-inactivated fetal calf serum. Medium is aspirated and replaced by DMEM, without fetal calf serum, but containing [^3H]-arachidonic acid and incubated overnight in a cell culture stove (5% CO2/95% air; 37° C.; water-saturated atmosphere). […]
Record form. Attribute: EC50. Fill in for each entry.
Quick note: give the figure in nM, leave out the unit.

Lookup: If you can, please state the reported EC50 value of CC(C)(NC(=O)C1=NN(CC2CCCCC2)C(c2ccccc2)C1)c1ccc(F)cc1 (centres unmarked) .
Found: 15.8

Lookup: If you can, please state the reported EC50 value of CCCCCN1N=C(C(=O)NC(C)(C)c2ccccc2)CC1c1ccccn1 (centres unmarked) .
Found: 39.8

Lookup: If you can, please state the reported EC50 value of CCCCCN1N=C(C(=O)NC(C)(C)c2ccc(F)cc2)CC1c1ccccc1 (centres unmarked) .
Found: 1.58

Lookup: If you can, please state the reported EC50 value of CCCCCN1N=C(C(=O)NC2CC3CCC2C3)CC1c1ccccc1 (centres unmarked) .
Found: 39.8

Lookup: If you can, please state the reported EC50 value of CCCCN1N=C(C(=O)N[C@H]2C[C@H]3CC[C@]2(C)C3(C)C)CC1c1ccccc1 (some centres unmarked) .
Found: 31.6

###

biological target: human cannabinoid CB2 receptor (Homo sapiens, UniProt P34972); construct: expressed in transfected cells; host or cells: CHO cells, membrane preparations; assay: In vitro affinity for cannabinoid-CB2 receptors ([3H]CP-55,940 radioligand binding); details: membranes of CHO cells stably transfected with human CB2, read-out: receptor binding Human CB2 affinity pKi (converted)
outcome_measure: Ki (nM)
Quick note: give the figure in nM, leave out the unit.

Lookup: If you can, please state the reported Ki value of CCCCCN1N=C(C(=O)N[C@H]2C[C@H]3CC[C@]2(C)C3(C)C)CC1c1ccccc1 (stereo partly drawn) .
Found: 25.1

Lookup: If you can, please state the reported Ki value of CCCCCN1N=C(C(=O)NCc2cccc(C(F)(F)F)c2)CC1c1ccccc1 (racemic) .
Found: 316

Lookup: If you can, please state the reported Ki value of CCCCCN1N=C(C(=O)N[C@H]2C[C@H]3CC[C@]2(C)C3(C)C)CC1c1ccccc1F (stereo partly drawn) .
Found: 7.94

Lookup: If you can, please state the reported Ki value of CCCCN1N=C(C(=O)NC(C)(C)c2ccccc2)[C@@H](C)[C@@H]1c1ccccc1 (relative stereo) .
Found: 100

Lookup: If you can, please state the reported Ki value of CCCCCN1N=C(C(=O)NC(C)(C)c2ccccc2)CC1c1ccccn1 (stereo not drawn) .
Found: 10

Lookup: If you can, please state the reported Ki value of CCCCN1N=C(C(=O)N[C@H]2C[C@H]3CC[C@]2(C)C3(C)C)CC1c1ccccc1 (stereo partly drawn) .
Found: 25.1

Lookup: If you can, please state the reported Ki value of CCCCN1N=C(C(=O)NC(C)(C)c2ccccc2)CC1c1ccccc1 (stereo not drawn) .
Found: 39.8

Lookup: If you can, please state the reported Ki value of CCCCCN1N=C(C(=O)NCc2cccnc2)CC1c1ccccc1 (stereo not drawn) .
Found: 501

Lookup: If you can, please state the reported Ki value of CCCCCN1N=C(C(=O)NC2CC3CCC2C3)CC1c1ccccc1 (stereo not drawn) .
Found: 39.8

Lookup: If you can, please state the reported Ki value of CCCCCN1N=C(C(=O)NC(C)c2ccccc2)CC1c1ccccc1 (mixture of isomers) .
Found: 251

Lookup: If you can, please state the reported Ki value of CC(C)CN1N=C(C(=O)N[C@H]2C[C@H]3CC[C@]2(C)C3(C)C)CC1c1ccccc1 (stereo partly drawn) .
Found: 50.1

Lookup: If you can, please state the reported Ki value of CC(C)(NC(=O)C1=NN(CC2CCCCC2)C(c2ccccc2)C1)c1ccc(F)cc1 (stereo not drawn) .
Found: 31.6

###

molecular target: human cannabinoid CB1 receptor (Homo sapiens); construct: expressed in transfected cells; host or cells: Chinese hamster ovary (CHO) cells, membrane preparations; assay: In vitro affinity for cannabinoid-CB1 receptors ([3H]CP-55,940 radioligand binding); settings: membranes of CHO cells stably transfected with human CB1, read-out: receptor binding Human CB1 affinity pKi (converted)
Sequence (P21554 whole entry): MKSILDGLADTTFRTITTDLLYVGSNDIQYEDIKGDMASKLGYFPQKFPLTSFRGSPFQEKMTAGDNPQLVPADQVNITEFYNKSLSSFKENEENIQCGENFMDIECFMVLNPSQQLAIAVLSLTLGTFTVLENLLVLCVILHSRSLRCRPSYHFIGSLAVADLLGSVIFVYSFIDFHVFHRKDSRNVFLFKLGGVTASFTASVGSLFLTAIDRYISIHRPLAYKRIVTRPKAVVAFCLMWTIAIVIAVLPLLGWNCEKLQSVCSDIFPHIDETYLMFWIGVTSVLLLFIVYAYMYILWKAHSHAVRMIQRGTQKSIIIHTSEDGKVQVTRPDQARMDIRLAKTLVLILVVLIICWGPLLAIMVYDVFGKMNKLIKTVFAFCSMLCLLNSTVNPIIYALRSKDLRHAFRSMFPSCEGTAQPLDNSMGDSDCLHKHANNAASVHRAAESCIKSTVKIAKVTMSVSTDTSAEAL
outcome_measure: Ki (nM)
Quick note: give the figure in nM, leave out the unit.

Lookup: If you can, please state the reported Ki value of CC(C)(NC(=O)C1=NN(CC2CCCCC2)C(c2ccccc2)C1)c1ccc(F)cc1 (stereo not shown) .
Found: 25.1

Lookup: If you can, please state the reported Ki value of CCCCCN1N=C(C(=O)NC(C)(C)c2ccccc2)CC1c1ccccn1 (stereo not shown) .
Found: 7.94

Lookup: If you can, please state the reported Ki value of CCCCCN1N=C(C(=O)NC2CC3CCC2C3)CC1c1ccccc1 (stereo not shown) .
Found: 79.4

Lookup: If you can, please state the reported Ki value of CCCCN1N=C(C(=O)N[C@H]2C[C@H]3CC[C@]2(C)C3(C)C)CC1c1ccccc1 (stereo partly shown) .
Found: 79.4

###

biological target: human CB1 receptor (Homo sapiens, UniProt P21554); construct: expressed in transfected cells; host or cells: CHO cells; test: In vitro cannabinoid-CB1 receptor (ant)agonism ([3H]-arachidonic acid release in CHO cells); type: cell-based; settings: human CB1 receptor cloned in CHO cells, read-out: Functional CB1 assays Human CB1 agonism pEC50 (converted)
outcome_measure: EC50 (nM)
Quick note: give the figure in nM, leave out the unit.

Lookup: If you can, please state the reported EC50 value of CCCCCN1N=C(C(=O)NC(C)c2ccccc2)CC1c1ccccc1 (mixture of isomers) .
Found: 501

Lookup: If you can, please state the reported EC50 value of CCCCCN1N=C(C(=O)Nc2cccc3ccccc23)CC1c1ccccc1 (centres unmarked) .
Found: 39.8

Lookup: If you can, please state the reported EC50 value of CCCCN1N=C(C(=O)NC(C)(C)c2ccccc2)CC1c1ccccc1 (centres unmarked) .
Found: 100

Lookup: If you can, please state the reported EC50 value of CCCCCN1N=C(C(=O)NCc2cccnc2)CC1c1ccccc1 (centres unmarked) .
Found: 631

Lookup: If you can, please state the reported EC50 value of CCCCCN1N=C(C(=O)N[C@H]2C[C@H]3CC[C@]2(C)C3(C)C)CC1c1ccccc1 (some centres unmarked) .
Found: 3.16

Lookup: If you can, please state the reported EC50 value of CC(C)CN1N=C(C(=O)N[C@H]2C[C@H]3CC[C@]2(C)C3(C)C)CC1c1ccccc1 (some centres unmarked) .
Found: 316

Lookup: If you can, please state the reported EC50 value of CCCCCN1N=C(C(=O)NC23CC4CC(CC(C4)C2)C3)CC1c1ccccc1 (centres unmarked) .
Found: 12.6

Lookup: If you can, please state the reported EC50 value of CCCCCN1N=C(C(=O)NC(C)(C)c2ccccc2)CC1c1ccccc1 (centres unmarked) .
Found: 7.94

Lookup: If you can, please state the reported EC50 value of CCCCN1N=C(C(=O)NC(C)(C)c2ccccc2)[C@@H](C)[C@@H]1c1ccccc1 (relative stereo) .
Found: 7.94

Lookup: If you can, please state the reported EC50 value of CCCCCN1N=C(C(=O)NCc2cccc(C(F)(F)F)c2)CC1c1ccccc1 (racemic) .
Found: 79.4

Lookup: If you can, please state the reported EC50 value of CCCCCN1N=C(C(=O)N[C@H]2C[C@H]3CC[C@]2(C)C3(C)C)CC1c1ccccc1F (some centres unmarked) .
Found: 6.31

Where these numbers come from: patent US7928134B2
